# system_tested: Follistatin (Homo sapiens) (UniProt P19883)
# Sequence (P19883 whole entry, looked up): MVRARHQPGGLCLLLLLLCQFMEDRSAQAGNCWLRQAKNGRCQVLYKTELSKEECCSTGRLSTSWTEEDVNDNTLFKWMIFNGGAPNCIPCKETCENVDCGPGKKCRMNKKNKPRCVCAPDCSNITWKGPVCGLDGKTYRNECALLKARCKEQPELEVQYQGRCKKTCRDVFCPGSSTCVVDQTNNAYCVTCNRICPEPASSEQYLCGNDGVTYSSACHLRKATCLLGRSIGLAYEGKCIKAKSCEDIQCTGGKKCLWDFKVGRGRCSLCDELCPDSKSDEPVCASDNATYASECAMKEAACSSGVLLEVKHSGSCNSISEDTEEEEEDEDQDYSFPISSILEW
# assay_name: follistatin binders on small-molecule microarrays, primary screen, biochemical, small-molecule microarray, 635/667 nm fluorescence (AID 1132)
# study_conditions: FST binding, 635 nm fluorescence, higher = more signal
readout: composite z-score
// return a plain number; no unit text

Field: example entries. Status: answers known.
molecule	composite z-score
CN1C(=O)[C@@]2(CCC(=O)OC(C)(C)C)N=C(c3ccc(OCCCO)cc3)O[C@H]2c2ccccc21	1.36
O=C1[C@H]2[C@H]3[C@H](O)[C@H](O)CC(=NOCc4ccccc4)[C@H]3CC[C@H]2C(=O)N1c1ccc(F)cc1F	-0.273
C=CC[C@@H]1C=C[C@H](ON=Cc2ccc(C(=O)N3[C@H](c4ccc(C)cc4)[C@@H](C)CC[C@H]3C(=O)OC)cc2)[C@@H](CO)O1	0.333
O=C(NN=C1C[C@@H](O)[C@@H](O)[C@@H]2[C@@H]3C(=O)N(c4ccc(F)cc4F)C(=O)[C@@H]3CC[C@@H]12)OCc1ccccc1	0.385
COc1ccc([Si](C)(C)[C@H]2[C@H](CC(=O)N3CCC[C@H]3CO)O[C@@]3(C(=O)N(Cc4cccc(N5C(=O)COc6ccccc65)c4)c4ccccc43)[C@@H]2C)cc1	0.727
COC(=O)[C@H](C)NC(=O)CCC1CC(OC(=O)NCc2cccc3ccccc23)CC2(CCCC(COC(=O)NCC3CCCCC3)O2)O1 (some centres not stated)	0.591

Pending molecule:
Ask: For the molecule O=C1[C@H]2[C@H]3[C@H](O)[C@H](O)CC(=NOC[C@@H](O)COCc4ccco4)[C@H]3CC[C@H]2C(=O)N1Cc1ccc2c(c1)OCO2 , what composite z-score is on record?
Reply: 1.3

###

# system_tested: Pro-neuregulin-1, membrane-bound isoform (Homo sapiens)
# assay_name: NRG1 binders on small-molecule microarrays, primary screen, psychiatric disease protein project, biochemical, small-molecule microarray, fluorescence 635/667 (AID 1075);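 further: score combines 667 nm spot fluorescence with signal to noise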
# study_conditions: NRG1 binding, 635 nm fluorescence, higher = more signal
This listing pairs compounds with measured composite z-score.

Consider the reported composite z-score for these compounds:
compound	readout_value
CCOC(=O)CCN1C(=O)[C@H]2[C@H]3[C@H](O)[C@H](O)CC(=O)[C@H]3CC[C@H]2C1=O	0.217
CCc1cc2c(nc1CC)CCN(CCC(C)=NOC[C@@H](O)[C@H]1O[C@@H]3OC(C)(C)O[C@@H]3[C@H]1O)C2	0.146
CC(C)(C)N1CC=CC23O[C@@H]4C=CCCOC(=O)C4[C@H]2C(=O)N(CCCCCO)[C@@H]3C1=O (stereo partly specified)	-0.0196
CN1C(=O)C2C=CC(C(O)c3ccc(Br)cc3)N(N(c3ccccc3)c3ccccc3)C2C1=O (stereo unspecified)	0.181
CCCCCN1CC=CC23O[C@@H]4C=CCOC(=O)[C@@H]4[C@H]2C(=O)N(CCCCCCO)[C@@H]3C1=O (stereo partly specified)	2.35

Ask: Which composite z-score is reported for this compound? COC(=O)C1(C)C=C2C(=C(c3ccccc3)C(=O)C2C)CN1 (stereo unspecified)
Reply: 1.96

Ask: I would be grateful if you could share the reported composite z-score for CCN1C(=O)[C@H]2[C@H]3[C@H](O)[C@H](O)CC(=NO[C@@H]4O[C@H](CO)[C@@H](O)[C@H](O)[C@H]4O)[C@@H]3CC[C@H]2C1=O .
Reply: 0.485

Ask: Item COC(=O)[C@@H]1CC[C@H](C)[C@@H](c2ccc(C)cc2)N1C(=O)c1ccc(C=NOC(C)CN2CCCCc3nc(C)c(C)cc32)cc1 (stereo partly specified) has what recorded composite z-score?
Reply: 0.131
